ASSAY_REMARKS: TIMS collisional cross section (CCS, N2) of the lipid ion; higher = larger ion cross section
CONDITION_PARAMETERS: sample type: plasma; ionization mode: positive; one isomer drawn
ATTRIBUTE_MEASURED: TIMS collisional cross section (Å²)

molecule="CC/C=C\\C/C=C\\C/C=C\\C/C=C\\C/C=C\\C/C=C\\CCC(=O)OC[C@@H](COC(=O)CCCCCCC/C=C\\C/C=C\\CCCCC)OC(=O)CCCCCCC/C=C\\C/C=C\\CCCCC [TG 18:2_18:2_22:6] (ion (formula + adduct): [C61H98O6+NH4] 1+)" attribute_measured="TIMS collisional cross section" experimental_value=327
molecule="CCCCCCCCCCCCCCCCCCC(=O)OC[C@@H](COC(=O)CCCCCCCCCCCCCCC)OC(=O)CCCCCCCCCCCCCCCCC [TG 16:0_18:0_19:0] (ion (formula + adduct): [C56H108O6+NH4] 1+)" attribute_measured="TIMS collisional cross section" experimental_value=329
molecule="CCCCCCCC/C=C\\CCCCCCCC(=O)OC[C@@H](COC(=O)CCCCCCCCCCC)OC(=O)CCCCCCCCCCCCC [TG 12:0_14:0_18:1] (ion (formula + adduct): [C47H88O6+NH4] 1+)" attribute_measured="TIMS collisional cross section" experimental_value=298.9
molecule="CCCCCCCCCCCCCCCC(=O)OC[C@H](COP(=O)([O-])OCC[N+](C)(C)C)OC(=O)CCCCCCCC=O [Oxidized PC 16:0_9:0@] (ion (formula + adduct): [C33H64NO9P+H] 1+)" attribute_measured="TIMS collisional cross section" experimental_value=257
molecule="CCCCC/C=C\\C=C\\CCCCCCCCC(=O)O[C@H](COC(=O)CCCCCCCCCCCCCCC)COP(=O)([O-])OCC[N+](C)(C)C [PC 16:0@_18:2] (ion (formula + adduct): [C42H80NO8P+H] 1+)" attribute_measured="TIMS collisional cross section" experimental_value=284.9
molecule="CC(C)CCC[C@@H](C)[C@H]1CC[C@H]2[C@@H]3C(=O)C=C4C=CCC[C@]4(C)[C@H]3CC[C@]12C [3,5-cholestadien-7-one] (ion (formula + adduct): [C27H42O+H] 1+)" attribute_measured="TIMS collisional cross section" experimental_value=203.1
molecule="CCCCCCCCCCCCC/C=C/C=C/C(=O)OC[C@@H](O)COP(=O)([O-])OCC[N+](C)(C)C [LPC 18:2_0:0] (ion (formula + adduct): [C26H50NO7P+H] 1+)" attribute_measured="TIMS collisional cross section" experimental_value=226.96
molecule="CCCCC/C=C\\C/C=C\\CCCCCCCC(=O)OC[C@@H](COC(=O)CCCCCCCCCCCCCC)OC(=O)CCCCCCC/C=C\\CCCCCCCC [TG 15:0_18:1_18:2] (ion (formula + adduct): [C54H98O6+NH4] 1+)" attribute_measured="TIMS collisional cross section" experimental_value=316.6
molecule="CCCCC/C=C\\C/C=C\\C/C=C\\C/C=C\\CCCC(=O)O[C@H](COC(=O)CCCC/C=C\\C/C=C\\C/C=C\\CCCCC)COP(=O)([O-])OCC[N+](C)(C)C [PC 18:3@_20:4] (ion (formula + adduct): [C46H78NO8P+H] 1+)" attribute_measured="TIMS collisional cross section" experimental_value=292.8
molecule="CCCCCCCC/C=C\\CCCCCCCC(=O)OC[C@@H](COC(=O)CCCCCCCCCCCCCCC)OC(=O)CCCCCCCCCCCCCCCCC [TG 16:0_18:0_18:1] (ion (formula + adduct): [C55H104O6+NH4] 1+)" attribute_measured="TIMS collisional cross section" experimental_value=324.45
molecule="CCCC/C=C\\CCCCCCCC(=O)OC[C@@H](COC(=O)CCCCCCCCCCC)OC(=O)CCCCCCCCCCC [TG 12:0_12:0_14:1] (ion (formula + adduct): [C41H76O6+NH4] 1+)" attribute_measured="TIMS collisional cross section" experimental_value=278.9
molecule="CC/C=C\\C/C=C\\C/C=C\\C/C=C\\C/C=C\\C/C=C\\CCC(=O)OC[C@@H](O)COP(=O)([O-])OCC[N+](C)(C)C [LPC 22:6_0:0] (ion (formula + adduct): [C30H50NO7P+H] 1+)" attribute_measured="TIMS collisional cross section" experimental_value=233.1
molecule="CCCCC/C=C\\C[C@H](O)/C=C/C=C\\C/C=C\\CCCC(=O)O[C@H](COC(=O)CCCCCCCCCCCCCCCCC)COP(=O)([O-])OCC[N+](C)(C)C [Oxidized PC 18:0_20:4] (ion (formula + adduct): [C46H84NO9P+H] 1+)" attribute_measured="TIMS collisional cross section" experimental_value=296.7
molecule="CCCCCCCC/C=C\\CCCCCCCC(=O)OC[C@@H](COC(=O)CCCCCCCCCCCCCCC)OC(=O)CCCCCCC/C=C\\CCCCCCCC [TG 16:0_18:1_18:1] (ion (formula + adduct): [C55H102O6+NH4] 1+)" attribute_measured="TIMS collisional cross section" experimental_value=322.45
molecule="CCCCCCCCCCCCCC/C=C\\OC[C@H](COP(=O)([O-])OCC[N+](C)(C)C)OC(=O)CCCCCCCCCCCCCCC [PC P- 16:0_16:0] (ion (formula + adduct): [C40H80NO7P+H] 1+)" attribute_measured="TIMS collisional cross section" experimental_value=284.4
molecule="CC/C=C\\C/C=C\\C/C=C\\C/C=C\\C/C=C\\C/C=C\\CCC(=O)O[C@H](COC(=O)CCCCCCCCCCCCCC)COP(=O)([O-])OCC[N+](C)(C)C [PC 15:0@_22:6] (ion (formula + adduct): [C45H78NO8P+H] 1+)" attribute_measured="TIMS collisional cross section" experimental_value=288.2
molecule="CCCCC/C=C\\C/C=C\\CCCCCCCC(=O)O[C@H](COC(=O)CCCCCCC/C=C\\CCCCCC)COP(=O)([O-])OCC[N+](C)(C)C [PC 16:1_18:2] (ion (formula + adduct): [C42H78NO8P+H] 1+)" attribute_measured="TIMS collisional cross section" experimental_value=282.6

* * *

ASSAY_REMARKS: TIMS collisional cross section (CCS, N2) of the lipid ion; higher = larger ion cross section
CONDITION_PARAMETERS: sample type: HeLa; ionization mode: positive; one isomer drawn
ATTRIBUTE_MEASURED: TIMS collisional cross section (Å²)

compound="CCCCCC/C=C\\CCCCCCCC(=O)O[C@H](COC(=O)CCCCCCCCCCCCC)COP(=O)([O-])OCC[N+](C)(C)C [PC 14:0_16:1@] (ion (formula + adduct): [C38H74NO8P+H] 1+)" experimental_value=276.5
compound="CCCCC/C=C\\C/C=C\\C/C=C\\C/C=C\\CCCCCC(=O)OC[C@@H](COC(=O)CCCCCCC/C=C\\CCCCCCCC)OC(=O)CCCCCCCCC/C=C\\CCCCCCCC [TG 18:1_20:1_22:4] (ion (formula + adduct): [C63H110O6+NH4] 1+)" experimental_value=338.9
compound="CCCCC/C=C\\C/C=C\\C/C=C\\CCCCCCC(=O)OC[C@@H](COC(=O)CCCCCCC/C=C\\CCCCCCCC)OC(=O)CCCCCCCCC/C=C\\CCCCCCCC [TG 18:1_20:1_20:3] (ion (formula + adduct): [C61H108O6+NH4] 1+)" experimental_value=336.4
compound="CC/C=C\\C/C=C\\C/C=C\\C/C=C\\C/C=C\\C/C=C\\CCC(=O)OC[C@@H](COC(=O)CCCCCCCCCCCCCCC)OC(=O)CCCCCC/C=C\\C/C=C\\C/C=C\\CCCCC [TG 16:0_20:3_22:6] (ion (formula + adduct): [C61H100O6+NH4] 1+)" experimental_value=329.4

* * *

ASSAY_REMARKS: TIMS collisional cross section (CCS, N2) of the lipid ion; higher = larger ion cross section
CONDITION_PARAMETERS: sample type: HeLa; ionization mode: positive; one isomer drawn
ATTRIBUTE_MEASURED: TIMS collisional cross section (Å²)

compound="CCCCC/C=C\\C/C=C\\C/C=C\\CCCCCCC(=O)O[C@H](CO/C=C\\CCCCCCCCCCCCCC)COP(=O)(O)OCCN [PE P- 16:0@_20:3] (ion (formula + adduct): [C41H76NO7P+H] 1+)" attribute_measured="TIMS collisional cross section" result_unit=Å² experimental_value=275.1
compound="CCCCCCCC/C=C\\CCCCCCCCCCCC(=O)OC[C@@H](COC(=O)CCCCCCCCCCCCCCCCC)OC(=O)CCCCCCC/C=C\\CCCCCCCC [TG 18:0_18:1_22:1] (ion (formula + adduct): [C61H114O6+NH4] 1+)" attribute_measured="TIMS collisional cross section" result_unit=Å² experimental_value=339.3
compound="CCCCCCCC/C=C\\CCCCCCCC(=O)O[C@@H](CO)COC(=O)CCCCCCCCCCCCCCCC [DG 17:0_18:1_0:0] (ion (formula + adduct): [C38H72O5+NH4] 1+)" attribute_measured="TIMS collisional cross section" result_unit=Å² experimental_value=265.7
compound="CCCCCCCCC/C=C\\CCCCCCCC(=O)OC[C@@H](COC(=O)CCCCCCCCCCCCCCC)OC(=O)CCCCCCCCCCCCCCC [TG 16:0_16:0_19:1] (ion (formula + adduct): [C54H102O6+NH4] 1+)" attribute_measured="TIMS collisional cross section" result_unit=Å² experimental_value=321.5
compound="CCCCC/C=C\\C/C=C\\C/C=C\\C/C=C\\C/C=C\\CCC(=O)OC[C@@H](O)COP(=O)([O-])OCC[N+](C)(C)C [LPC 22:5] (ion (formula + adduct): [C30H52NO7P+H] 1+)" attribute_measured="TIMS collisional cross section" result_unit=Å² experimental_value=232.9
compound="CCCC/C=C\\CCCCCCCC(=O)OC[C@H](COC(=O)CCCCCCC/C=C\\CCCCCC)OC(=O)CCCCCCC/C=C\\CCCC [TG 14:1_14:1_16:1] (ion (formula + adduct): [C47H84O6+NH4] 1+)" attribute_measured="TIMS collisional cross section" result_unit=Å² experimental_value=294.6
compound="CCCCCCCCCCCCCCCCCCCC(=O)OC[C@@H](COC(=O)CCCCCCCCCCCCC)OC(=O)CCCCCCCCCCCCCCC [TG 14:0_16:0_20:0] (ion (formula + adduct): [C53H102O6+NH4] 1+)" attribute_measured="TIMS collisional cross section" result_unit=Å² experimental_value=320.6
compound="CCC/C=C\\C/C=C\\CCCCCCCCCC(=O)O[C@H](COC(=O)CCCCCCCCCCCCC)COP(=O)([O-])OCC[N+](C)(C)C [PC 14:0_18:2] (ion (formula + adduct): [C40H76NO8P+H] 1+)" attribute_measured="TIMS collisional cross section" result_unit=Å² experimental_value=279.2
compound="CCCCC/C=C\\C/C=C\\CCCCCCCC(=O)O[C@H](CO/C=C\\CCCCCCCCCCCCCC)COP(=O)(O)OCCN [PE P- 16:0@_18:2] (ion (formula + adduct): [C39H74NO7P+H] 1+)" attribute_measured="TIMS collisional cross section" result_unit=Å² experimental_value=270.7
compound="CCCCCC/C=C\\CCCCCCCC(=O)OC[C@@H](COC(=O)CCCCCCCCCCCCC)OC(=O)CCCCCCCCCCCCCCC [TG 14:0_16:0_16:1] (ion (formula + adduct): [C49H92O6+NH4] 1+)" attribute_measured="TIMS collisional cross section" result_unit=Å² experimental_value=306.03
compound="CCCCCC/C=C/CCCCCCCCCC(=O)OC[C@H](CO)OC(=O)CCCCCCCCCCCCCCC [DG 18:1_16:0_0:0] (ion (formula + adduct): [C37H70O5+H] 1+)" attribute_measured="TIMS collisional cross section" result_unit=Å² experimental_value=257.7
compound="CCCCCCCC/C=C\\C/C=C\\C/C=C\\CCCC(=O)O[C@H](COC(=O)CCCCCCC/C=C\\CCCCCCCC)COP(=O)([O-])OCC[N+](C)(C)C [PC 18:1_20:3] (ion (formula + adduct): [C46H84NO8P+H] 1+)" attribute_measured="TIMS collisional cross section" result_unit=Å² experimental_value=294
compound="CCCCCCCCCCC/C=C\\CCCCC(=O)OC[C@@H](O)COP(=O)([O-])OCC[N+](C)(C)C [LPC 18:1_0:0] (ion (formula + adduct): [C26H52NO7P+H] 1+)" attribute_measured="TIMS collisional cross section" result_unit=Å² experimental_value=233.6
compound="CCCCCCCCCCCCCCCC(=O)OC[C@@H](COC(=O)CCCCCCCCCCCCCC)OC(=O)CCCCCCCCCCCCCCC [TG 15:0_16:0_16:0] (ion (formula + adduct): [C50H96O6+NH4] 1+)" attribute_measured="TIMS collisional cross section" result_unit=Å² experimental_value=311.5
compound="CCCCCCCCCCCCCCCC(=O)OC[C@@H](COC(=O)CCCCCCCCCCCC)OC(=O)CCCCCCCCCCCC [TG 13:0_13:0_16:0] (ion (formula + adduct): [C45H86O6+NH4] 1+)" attribute_measured="TIMS collisional cross section" result_unit=Å² experimental_value=295.3
compound="C12CC[C@@]3([H])C(C)(C)[C@@H](O)CC[C@]3(C)C=1CC[C@]1(C)[C@@]([H])([C@@](C)([H])CC/C=C(\\C)/C)CC[C@@]21C=O [32-oxolanosterol] (ion (formula + adduct): [C30H48O2+H] 1+)" attribute_measured="TIMS collisional cross section" result_unit=Å² experimental_value=211.6
compound="CCCCCCC/C=C\\CCCCCCCC(=O)OC[C@H](COP(=O)([O-])OCC[N+](C)(C)C)OC(=O)CCCCCCC/C=C\\CCCCCCCC [PC 17:1_18:1] (ion (formula + adduct): [C43H82NO8P+H] 1+)" attribute_measured="TIMS collisional cross section" result_unit=Å² experimental_value=289.2
compound="CCCCC/C=C\\C/C=C\\C/C=C\\C/C=C\\CCCC(=O)OC[C@H](COP(=O)(O)OCCN)OC(=O)CCCCCCC/C=C\\CCCCCCCC [PE 20:4_18:1] (ion (formula + adduct): [C43H76NO8P+H] 1+)" attribute_measured="TIMS collisional cross section" result_unit=Å² experimental_value=279.1
